In this section, each of the molecules is paired with its reported Plant response rating, Rice.
Tested on: rice
Experiment: Test B pre-/postemergence herbicide test
Type: in vivo, Oryza sativa
Conditions: preemergence, 125 g ai/ha; 0 to 100 scale, 0 is no effect, 100 is complete control
Description: […] At the same time, plants selected from these crop and weed species and also blackgrass (Alopecurus myosuroides Huds.), wheat (Triticum aestivum L.) and wild oat (Avena fatua L.) were treated with postemergence applications of test chemicals formulated in the same manner. […] Treated plants and controls were maintained in a greenhouse for 13 to 15 days, after which time all species were compared to controls and visually evaluated. […]
I'd appreciate a reply containing only the number, no unit.

Illustrative cases are given below, each with its answer.
INSERT INTO results (molecule, property_measured, value_observed) VALUES
  ('CCN1CCc2c(NC(=O)c3cc(C(C)(C)C)nn3CC)cccc2C1=O [Compound 63]', 'Plant response rating, Rice', 50),
  ('CCNC(=O)c1cccc(NC(=O)c2cc(C(C)(C)C)nn2CC)n1 [Compound 144]', 'Plant response rating, Rice', 20),
  ('CCn1nc(C(C)(C)C)cc1C(=O)Nc1cccc(C(=O)OCCF)c1C [Compound 91]', 'Plant response rating, Rice', 0),
  ('CCn1nc(C(C)(C)C)cc1C(=O)Nc1cccc(C(=O)NCC(C)C)c1 [Compound 61]', 'Plant response rating, Rice', 0);

Enquiry: Dear colleague, please send me the reported Plant response rating, Rice for CCn1nc(C(C)(C)C)cc1C(=O)Nc1cccc(C(=O)NC(C)C)c1 [Compound 51] when you can.
Return: 0

---

Tested on: pigweed
Assay: Test B pre-/postemergence herbicide test
Type: in vivo, Amaranthus retroflexus
Conditions: 125 g ai/ha; visual rating, scale 0 (no effect) to 100 (complete control); postemergence
In this section, each of the compounds is paired with its reported Pigweed plant response rating.
I'd appreciate a reply containing only the number, no unit.

Illustrative cases are given below, each with its answer.
INSERT INTO results (compound, value_observed) VALUES
  ('CCc1nn(C(C)C)nc1C(=O)Nc1cccc(C(=O)N2CCCCC2)c1', 50),
  ('CCN(CC)C(=O)c1cccc(NC(=O)c2cc(C(C)(C)C)nn2C)n1', 60),
  ('CCc1nn(C(C)(C)C)nc1C(=O)Nc1cc(C(=O)N2CC=CC2)ccc1F', 20),
  ('Cc1nn(C(C)C)nc1C(=O)Nc1cc(C(=O)N2CC=CC2)ccc1F', 0),
  ('CCn1nc(C(C)(C)C)cc1C(=O)Nc1ccc(OC)c(OC)c1', 80);

Enquiry: Dear colleague, please send me the reported Pigweed plant response rating for CCc1nn(C(C)(C)C)nc1C(=O)Nc1cccc(C(=O)N(C)C)c1 when you can.
Return: 40

Enquiry: Dear colleague, please send me the reported Pigweed plant response rating for CCN(CC)C(=O)c1ccc(F)c(NC(=O)C2CC(C(C)(C)C)=NN2CC)c1 (racemic) when you can.
Return: 60

Enquiry: Dear colleague, please send me the reported Pigweed plant response rating for CCc1nn(C(C)(C)C)cc1C(=O)Nc1cccc(C(=O)N(C)C)n1 when you can.
Return: 20

Enquiry: Dear colleague, please send me the reported Pigweed plant response rating for CCSCNC(=O)c1cccc(NC(=O)c2cc(C(C)(C)C)nn2CC)c1 when you can.
Return: 50

Enquiry: Dear colleague, please send me the reported Pigweed plant response rating for C#CCNC(=O)c1cccc(NC(=O)c2sc(C(C)(C)C)nc2CC)c1 when you can.
Return: 30

---

Tested on: yellow nutsedge
Test: Test C pre-/postemergence herbicide test
Format: in vivo, Cyperus esculentus
Conditions: 250 g ai/ha; scale 0-100; preemergence
In this section, each of the compounds is paired with its reported Plant response rating, Nutsedge, Yellow.
I'd appreciate a reply containing only the number, no unit.

Enquiry: Would you please give the reported Plant response rating, Nutsedge, Yellow of CCc1nn(C(C)C)nc1C(=O)Nc1cccc(C(=O)N(C)CC)c1 with yellow nutsedge?
Return: 40

Enquiry: Would you please give the reported Plant response rating, Nutsedge, Yellow of CCNC(=O)c1ccc(F)c(NC(=O)C2CC(C(C)(C)C)=NN2CC)c1 (racemic) with yellow nutsedge?
Return: 40

Enquiry: Would you please give the reported Plant response rating, Nutsedge, Yellow of CCN1N=C(C(C)(C)C)CC1C(=O)Nc1cc(C(=O)N2CC=CC2)ccc1F (racemic) with yellow nutsedge?
Return: 0

Enquiry: Would you please give the reported Plant response rating, Nutsedge, Yellow of CCc1nc(C(C)(C)C)sc1C(=O)Nc1cccc(C(=O)N(CC)CC)c1 with yellow nutsedge?
Return: 0

---

Test system: barnyardgrass
Test: Test A pre-/postemergence herbicide test
Format: in vivo, Echinochloa crus-galli
Details: Postemergence, 2000 g ai/ha; 0 to 100 scale, 0 no effect, 100 complete control
PROPERTY MEASURED: Plant response rating, Barnyardgrass
I'd appreciate a reply containing only the number, no unit.

INSERT INTO measurements (compound, value_observed) VALUES
  ('CCn1nc(C(C)(C)C)cc1C(=O)Nc1nc(C(=O)N2CC=CC2)ccc1F [Compound 281]', 65);

Next up:
Enquiry: Dear colleague, please send me the reported Plant response rating, Barnyardgrass for CCOC(=O)c1cc(NC(=O)c2cc(C(C)(C)C)nn2CC)ccc1OCC [Compound 95] when you can.
Return: 55

---

Test system: corn
Experiment: Test B pre-/postemergence herbicide test
Format: in vivo, Zea mays
Conditions: postemergence, 500 g ai/ha; visual rating, scale 0 (no effect) to 100 (complete control)
PROPERTY MEASURED: Corn plant response rating
I'd appreciate a reply containing only the number, no unit.

Illustrative cases are given below, each with its answer.
INSERT INTO results (molecule, property_measured, value_observed) VALUES
  ('CCn1nc(C(C)(C)C)cc1C(=O)Nc1cc(C(=O)NCC2CC2)ccn1 [Compound 155]', 'Corn plant response rating', 20),
  ('CCc1nc(C(C)(C)C)sc1C(=O)Nc1cccc(C(=O)N(CC)CC)c1 [Compound 205]', 'Corn plant response rating', 20),
  ('CCOC(=O)c1ccnc(NC(=O)c2cc(C(C)(C)C)nn2CC)c1 [Compound 157]', 'Corn plant response rating', 0),
  ('CCCCOc1cccc(NC(=O)c2cc(C(C)(C)C)nn2CC)c1 [Compound 137]', 'Corn plant response rating', 20);

Enquiry: Dear colleague, please send me the reported Corn plant response rating for C#CCNC(=O)c1cccc(NC(=O)c2cc(C(C)(C)C)nn2CC)n1 [Compound 147] when you can.
Return: 30

Enquiry: Dear colleague, please send me the reported Corn plant response rating for CCNC(=O)c1ccc(F)c(NC(=O)c2sc(C(C)(C)C)nc2CC)c1 [Compound 226] when you can.
Return: 40

Enquiry: Dear colleague, please send me the reported Corn plant response rating for CCn1nc(C(C)(C)C)cc1C(=O)Nc1cc(C(=O)NC(C)(C)C)ccn1 [Compound 154] when you can.
Return: 20

---

System: velvetleaf
Assay: Test C pre-/postemergence herbicide test
Type: in vivo, Abutilon theophrasti
Conditions: 62 g ai/ha; preemergence; scale 0 to 100
PROPERTY MEASURED: Plant response rating, Velvetleaf

INSERT INTO assay_data (smiles_str, measurement_target, property_measured, value_observed) VALUES
  ('CCNC(=S)c1cccc(NC(=O)c2nn(C(C)(C)C)nc2C)c1', 'velvetleaf', 'Plant response rating, Velvetleaf', 80);

Enquiry: Dear colleague, please send me the reported Plant response rating, Velvetleaf for CCn1nc(C(C)(C)C)cc1C(=O)Nc1cc(C(=O)N(C)OC)ccc1F when you can.
Return: 15

Enquiry: Dear colleague, please send me the reported Plant response rating, Velvetleaf for CCNC(=O)c1ccc(F)c(NC(=O)c2cc(C3(C)CC3)nn2CC)c1 when you can.
Return: 5

Enquiry: Dear colleague, please send me the reported Plant response rating, Velvetleaf for C=CCNC(=O)c1cccc(NC(=O)c2nn(C(C)C)nc2CC)c1 when you can.
Return: 100

Enquiry: Dear colleague, please send me the reported Plant response rating, Velvetleaf for CCc1nn(C(C)C)nc1C(=O)Nc1cccc(C(=S)N(C)C)c1 when you can.
Return: 5

Enquiry: Dear colleague, please send me the reported Plant response rating, Velvetleaf for CCN(CC)C(=O)c1cccc(NC(=O)c2sc(C(C)(C)C)nc2C)c1 when you can.
Return: 10

---

System: blackgrass
Assay: Test B postemergence herbicide test
Type: in vivo, Alopecurus myosuroides
Conditions: postemergence, 500 g ai/ha; visual rating, scale 0 (no effect) to 100 (complete control)
PROPERTY MEASURED: Blackgrass plant response rating

Illustrative cases are given below, each with its answer.
INSERT INTO results (molecule, measurement_target, property_measured, value_observed) VALUES
  ('CCNC(=O)c1cccc(NC(=O)c2cc(C(C)(C)C)nn2CC)n1 [Compound 144]', 'blackgrass', 'Blackgrass plant response rating', 60),
  ('CCNC(=O)c1cc(NC(=O)c2cc(C(C)(C)C)nn2CC)ccn1 [Compound 257]', 'blackgrass', 'Blackgrass plant response rating', 10),
  ('Cn1nc(C(C)(C)C)cc1C(=O)Nc1cccc(C#N)c1 [Compound 121]', 'blackgrass', 'Blackgrass plant response rating', 0),
  ('CC(=NO)c1cccc(NC(=O)c2cn(C(C)C)nc2C)c1 [Compound 180]', 'blackgrass', 'Blackgrass plant response rating', 0),
  ('CCn1nc(C(C)(C)C)cc1C(=O)Nc1ccnc(C(=O)N(C)C)c1 [Compound 256]', 'blackgrass', 'Blackgrass plant response rating', 20);

Enquiry: Would you please give the reported Blackgrass plant response rating of CCNC(=O)c1ccnc(NC(=O)c2nn(C(C)(C)C)cc2CC)c1 [Compound 233] with blackgrass?
Return: 10

Enquiry: Would you please give the reported Blackgrass plant response rating of CCn1nc(C(C)(C)C)cc1C(=O)Nc1cccc(C(C)=O)c1 [Compound 122] with blackgrass?
Return: 10

Enquiry: Would you please give the reported Blackgrass plant response rating of CCOC(=O)c1ccnc(NC(=O)c2cc(C(C)(C)C)nn2CC)c1 [Compound 157] with blackgrass?
Return: 20

Enquiry: Would you please give the reported Blackgrass plant response rating of CCc1nc(C(C)(C)C)sc1C(=O)Nc1cccc(C(=O)N(CC)CC)c1 [Compound 205] with blackgrass?
Return: 20
